Target: Ubiquitin carboxyl-terminal hydrolase 28 (Homo sapiens) (UniProt Q96RU2)
Sequence (Q96RU2 whole entry, looked up): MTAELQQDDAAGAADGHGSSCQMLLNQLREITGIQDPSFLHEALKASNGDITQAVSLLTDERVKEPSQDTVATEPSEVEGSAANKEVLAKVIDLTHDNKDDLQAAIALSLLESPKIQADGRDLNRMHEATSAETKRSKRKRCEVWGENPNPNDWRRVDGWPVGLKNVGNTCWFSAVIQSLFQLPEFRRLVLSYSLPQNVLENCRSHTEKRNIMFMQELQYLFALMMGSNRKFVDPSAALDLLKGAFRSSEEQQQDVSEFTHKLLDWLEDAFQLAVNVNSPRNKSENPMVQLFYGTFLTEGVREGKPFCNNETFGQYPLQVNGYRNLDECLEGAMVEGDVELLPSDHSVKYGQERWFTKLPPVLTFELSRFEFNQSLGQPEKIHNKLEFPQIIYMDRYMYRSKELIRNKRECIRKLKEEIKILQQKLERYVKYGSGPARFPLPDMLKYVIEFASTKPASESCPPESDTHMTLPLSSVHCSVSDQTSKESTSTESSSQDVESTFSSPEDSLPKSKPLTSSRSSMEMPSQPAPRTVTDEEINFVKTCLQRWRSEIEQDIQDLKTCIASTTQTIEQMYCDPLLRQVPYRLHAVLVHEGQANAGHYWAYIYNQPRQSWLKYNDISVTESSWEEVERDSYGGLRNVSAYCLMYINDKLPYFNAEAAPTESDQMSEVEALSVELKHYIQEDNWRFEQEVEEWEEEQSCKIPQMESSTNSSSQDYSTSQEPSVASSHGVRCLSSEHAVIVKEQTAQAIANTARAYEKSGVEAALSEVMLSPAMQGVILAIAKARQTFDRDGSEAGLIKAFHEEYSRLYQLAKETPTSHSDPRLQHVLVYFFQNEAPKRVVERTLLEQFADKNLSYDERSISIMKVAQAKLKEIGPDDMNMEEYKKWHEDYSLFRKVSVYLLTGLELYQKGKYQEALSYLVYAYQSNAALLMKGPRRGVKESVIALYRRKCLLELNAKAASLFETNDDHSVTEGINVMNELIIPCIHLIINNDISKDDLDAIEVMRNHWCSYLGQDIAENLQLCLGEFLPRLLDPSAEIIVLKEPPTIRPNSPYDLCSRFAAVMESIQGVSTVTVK
Experiment: Concentration-response biochemical assay confirming initial hits as inhibitors of ubiquitin-specific protease 28 (AID 1645866)
Conditions: purified USP28, ubiquitin-rhodamine fluorescence, 30 min
Calls of active or inactive are those of the source.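 The calls were made as follows: active = in confirmatory dose-response testing, peak deubiquitinase inhibition of 30% or more; inactive = the rest.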
Outcome field: choose from 1 for active, 0 for inactive

compound=CN(C)S(=O)(=O)c1ccc(N2CCCC2)c(C(=O)Nc2ccc(-c3cn4ccsc4n3)cc2)c1 test_system="Ubiquitin carboxyl-terminal hydrolase 28 (Homo sapiens) (UniProt Q96RU2)" class=0
compound="CC(=O)N1CCCC(c2nc(C)cc(-c3cc(F)ccc3C(=O)O)n2)C1 (stereo unspecified)" test_system="Ubiquitin carboxyl-terminal hydrolase 28 (Homo sapiens) (UniProt Q96RU2)" class=0
compound=COc1cc(Cl)c(C)cc1NC(=O)Cn1c(=O)n(CC(=O)NCc2ccco2)c(=O)c2ccccc21 test_system="Ubiquitin carboxyl-terminal hydrolase 28 (Homo sapiens) (UniProt Q96RU2)" class=1

Okay, now this compound:
stdin: For this compound, state the assay outcome: "CC1CCN(S(=O)(=O)c2ccc3[nH]cc(C(=O)NCc4ccco4)c(=O)c3c2)CC1"
stdout: 0

---

Target: Ubiquitin carboxyl-terminal hydrolase 28 (Homo sapiens) (UniProt Q96RU2)
Test: Concentration-response biochemical assay confirming initial hits as inhibitors of ubiquitin-specific protease 28 (AID 1645866)
Conditions: purified USP28, ubiquitin-rhodamine fluorescence, 30 min
Calls of active or inactive are those of the source.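 Rule for the calls: active = in confirmatory dose-response testing, peak deubiquitinase inhibition of 30% or more; inactive = the rest.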
Outcome field: choose from yes (1) = active, no (0) = inactive

compound=Cc1ccccc1NC(=O)c1ccn(COc2ccc(Cl)cc2)n1 test_system="Ubiquitin carboxyl-terminal hydrolase 28 (Homo sapiens) (UniProt Q96RU2)" class="yes (1)"
compound=COc1ccc(C(=O)Nc2ccc3c(c2)Sc2ncccc2C(=O)N3C)cn1 test_system="Ubiquitin carboxyl-terminal hydrolase 28 (Homo sapiens) (UniProt Q96RU2)" class="no (0)"
compound=CCc1cccc(CC)c1NC(=O)COC(=O)c1cc2cccc(OC)c2oc1=O test_system="Ubiquitin carboxyl-terminal hydrolase 28 (Homo sapiens) (UniProt Q96RU2)" class="yes (1)"
compound=Cc1cc(C)c(NC(=O)Cn2c(=O)n(CCC(=O)NCc3ccc4c(c3)OCO4)c(=O)c3sccc32)c(C)c1 test_system="Ubiquitin carboxyl-terminal hydrolase 28 (Homo sapiens) (UniProt Q96RU2)" class="yes (1)"

Okay, now this compound:
stdin: For this compound, state the assay outcome: "COc1ccc(NS(=O)(=O)c2cc(NC(=O)CCc3nc4ccccc4s3)ccc2C)cc1"
stdout: yes (1)

---

Target: Ubiquitin carboxyl-terminal hydrolase 28 (Homo sapiens)
# IC50 values compiled below

Illustrative cases are given below, each with its answer.
compound=COc1ccc(-c2cc3c(=O)n(CC(=O)Nc4ccccc4Cl)ccn3n2)cc1 result="10 µM"
compound=COc1ccc(-n2c(SCC(=O)c3ccc(F)cc3)nnc2-c2cccnc2)cc1 result="18.6 µM"
compound=Fc1ccc(-c2noc(-c3nnc(NCc4cccnc4)c4ccccc34)n2)cc1 result="2.97 µM"
compound="O=C1CC(O)C(O)c2cccc(O)c21 (stereo unspecified)" result="23.6 µM"
compound=NC(=O)c1nnn(-c2ccc(NC(=O)c3ccc(F)c(F)c3)cc2)n1 result="11.2 µM"

Proceed to the following item.
stdin: For "Cc1ccc(NC(=O)c2cnc3c(c2)c(=O)n(C)c(=O)n3C)cc1" , what is its reported IC50?
stdout: 2.07 µM
